activation at 10 µM for assorted molecules
- tested.system: human TRPM8 (Homo sapiens)
- Construct: Each full-length human TRPA1, TRPV1, TRPV4, and TRPM8 coding regions were introduced into a pcDNA4/TO vector; expressed in transfected cells; host or cells: T-REx-293 cells (tetracycline-induced, pcDNA4/TO vector)
- protocol.summary: Ca2+ influx assay in TRPM8-expressing T-REx-293 cells
- Type: cell-based
- conditions: T-REx-293; 10 µmol/L test compound; relative to 20 µmol/L icilin; read-out: % of Activation Compared to Positive Control against Each Subfamily of TRP Channel TRPM8
Lab book: enter the figure in %, no units written.

Known results for molecules:
molecule	activation at 10 µM (%)
O=C(O)CNC(=O)c1ccccc1	7.5
CN[C@@H](C)[C@@H](O)c1ccccc1 [Pseudoephedrine, (S,S)-(+)-pseudoephedrine, reference compound]	2.8

Query: Request body: readout activation at 10 µM, system human TRPM8 (Homo sapiens), query c1cc2c(cc1[C@H]1OC[C@H]3[C@@H]1CO[C@H]3c1ccc3c(c1)OCO3)OCO2 [Asarinin, (−)-Asarinin] . Return the value.
Response: 1.4

Query: And what about the molecule Oc1cc(O)c2c(c1)O[C@H](c1ccc(O)c(O)c1)[C@H](O)C2 [Epicatechin] ?
Response: 4.2

---

- tested.system: human TRPM8 (Homo sapiens, UniProt Q7Z2W7)
- Construct: Each full-length human TRPA1, TRPV1, TRPV4, and TRPM8 coding regions were introduced into a pcDNA4/TO vector; expressed in transfected cells; host or cells: T-REx-293 cells (tetracycline-induced, pcDNA4/TO vector)
- Sequence (Q7Z2W7 whole entry): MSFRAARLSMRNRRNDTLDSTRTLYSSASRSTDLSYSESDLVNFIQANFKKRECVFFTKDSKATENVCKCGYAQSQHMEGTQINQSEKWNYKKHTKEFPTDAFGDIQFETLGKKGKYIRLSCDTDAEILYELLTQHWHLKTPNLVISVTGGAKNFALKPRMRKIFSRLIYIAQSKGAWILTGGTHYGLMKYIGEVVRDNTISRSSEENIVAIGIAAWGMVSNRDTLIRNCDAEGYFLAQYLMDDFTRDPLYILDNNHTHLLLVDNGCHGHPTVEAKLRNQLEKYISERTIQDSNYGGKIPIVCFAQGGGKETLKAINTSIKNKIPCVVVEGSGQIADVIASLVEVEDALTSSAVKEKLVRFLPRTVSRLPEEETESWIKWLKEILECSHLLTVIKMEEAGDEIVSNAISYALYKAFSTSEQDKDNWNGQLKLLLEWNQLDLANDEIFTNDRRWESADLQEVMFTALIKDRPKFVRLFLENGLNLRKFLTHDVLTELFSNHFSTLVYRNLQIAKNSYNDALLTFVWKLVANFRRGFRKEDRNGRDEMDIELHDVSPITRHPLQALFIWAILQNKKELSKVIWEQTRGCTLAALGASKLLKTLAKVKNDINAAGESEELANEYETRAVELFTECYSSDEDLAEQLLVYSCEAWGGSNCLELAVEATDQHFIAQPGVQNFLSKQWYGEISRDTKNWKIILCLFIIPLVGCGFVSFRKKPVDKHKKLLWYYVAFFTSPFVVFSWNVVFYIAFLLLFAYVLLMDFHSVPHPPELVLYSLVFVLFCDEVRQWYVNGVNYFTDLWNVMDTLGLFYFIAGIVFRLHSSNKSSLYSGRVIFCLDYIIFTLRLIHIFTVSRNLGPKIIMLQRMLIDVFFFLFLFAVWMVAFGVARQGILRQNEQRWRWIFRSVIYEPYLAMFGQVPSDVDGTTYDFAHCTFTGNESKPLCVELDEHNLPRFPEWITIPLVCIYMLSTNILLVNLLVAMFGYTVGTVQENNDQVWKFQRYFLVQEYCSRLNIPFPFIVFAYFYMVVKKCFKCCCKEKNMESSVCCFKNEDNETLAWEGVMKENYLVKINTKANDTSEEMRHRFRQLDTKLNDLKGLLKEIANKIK
- protocol.summary: Ca2+ influx assay in TRPM8-expressing T-REx-293 cells
- Assay type: cell-based
- conditions: T-REx-293; 10 µmol/L test compound; relative to 20 µmol/L icilin; read-out: % of Activation Compared to Positive Control against Each Subfamily of TRP Channel TRPM8
# maps each entry to its activation at 10 µM
Express your answer in %, writing the number without its unit.

In the examples that follow, each entry is paired with its recorded activation at 10 µM.
molecule	quantity.name	unit.of.measurement	assay.result
Oc1cc(O)c2c(c1)O[C@H](c1cc(O)c(O)c(O)c1)[C@H](O)C2 [Epigallocatechin]	activation at 10 µM	%	4.8
C/C=C/C=C\CC/C=C/C=C/C(=O)NCC(C)C [Amide A]	activation at 10 µM	%	6.1
CN[C@@H](C)[C@H](O)c1ccccc1 [Ephedrine, (1R,2S)-(−)-Ephedrine, reference compound]	activation at 10 µM	%	3.2
O=c1cc(-c2ccc(O)cc2)oc2cc(O)c([C@@H]3O[C@H](CO)[C@@H](O)[C@H](O)[C@H]3O)c(O)c12 [Isovitexin]	activation at 10 µM	%	4.3

Query: Give the measured activation at 10 µM of c1cc2c(cc1[C@H]1OC[C@H]3[C@@H]1CO[C@@H]3c1ccc3c(c1)OCO3)OCO2 [Sesamin] .
Response: -0.8

---

- tested.system: human TRPV4 (Homo sapiens, UniProt Q9HBA0)
- Construct: Each full-length human TRPA1, TRPV1, TRPV4, and TRPM8 coding regions were introduced into a pcDNA4/TO vector; expressed in transfected cells; host or cells: T-REx-293 cells (tetracycline-induced, pcDNA4/TO vector)
- Sequence (Q9HBA0 whole entry): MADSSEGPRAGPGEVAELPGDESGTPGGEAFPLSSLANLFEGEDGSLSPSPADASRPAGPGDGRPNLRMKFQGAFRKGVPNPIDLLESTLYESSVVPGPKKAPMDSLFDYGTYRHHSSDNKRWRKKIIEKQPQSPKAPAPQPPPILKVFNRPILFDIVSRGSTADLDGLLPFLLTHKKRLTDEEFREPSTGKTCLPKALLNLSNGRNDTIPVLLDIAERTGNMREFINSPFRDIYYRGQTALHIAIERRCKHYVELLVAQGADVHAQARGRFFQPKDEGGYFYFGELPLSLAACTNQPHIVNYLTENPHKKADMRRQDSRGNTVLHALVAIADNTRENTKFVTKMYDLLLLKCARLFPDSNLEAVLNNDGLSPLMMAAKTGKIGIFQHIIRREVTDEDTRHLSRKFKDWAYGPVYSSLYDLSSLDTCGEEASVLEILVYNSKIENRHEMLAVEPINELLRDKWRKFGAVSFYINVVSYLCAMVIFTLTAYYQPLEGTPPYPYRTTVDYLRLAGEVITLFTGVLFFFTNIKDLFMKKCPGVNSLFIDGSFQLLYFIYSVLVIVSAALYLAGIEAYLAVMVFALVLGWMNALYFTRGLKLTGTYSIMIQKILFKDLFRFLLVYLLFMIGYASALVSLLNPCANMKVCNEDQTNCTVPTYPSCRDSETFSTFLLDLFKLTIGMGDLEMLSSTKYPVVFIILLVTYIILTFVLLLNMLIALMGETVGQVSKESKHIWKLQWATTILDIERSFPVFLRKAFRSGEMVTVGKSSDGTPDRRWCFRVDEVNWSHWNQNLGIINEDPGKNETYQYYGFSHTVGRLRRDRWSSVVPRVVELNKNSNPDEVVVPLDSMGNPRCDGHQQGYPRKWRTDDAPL
- protocol.summary: Ca2+ influx assay in TRPV4-expressing T-REx-293 cells
- Type: cell-based
- conditions: T-REx-293; 10 µmol/L test compound; relative to 4 µmol/L GSK1016790A; read-out: % of Activation Compared to Positive Control against Each Subfamily of TRP Channel TRPV4
quantity.name: activation at 10 µM

The cases that follow already have their activation at 10 µM on record.
compound	activation at 10 µM
O=c1cc(-c2ccc(O)cc2)oc2cc(O)c([C@@H]3O[C@H](CO)[C@@H](O)[C@H](O)[C@H]3O)c(O)c12	2.3%
c1cc2c(cc1[C@H]1OC[C@H]3[C@@H]1CO[C@@H]3c1ccc3c(c1)OCO3)OCO2	-0.1%
Oc1cc(O)c2c(c1)O[C@H](c1cc(O)c(O)c(O)c1)[C@H](O)C2 [Epigallocatechin]	0.1%
O=C(O)CNC(=O)c1ccccc1	2.8%

Read the next record carefully.
Query: Which activation at 10 µM reading was recorded for the compound CN[C@@H](C)[C@@H](O)c1ccccc1 [Pseudoephedrine, (S,S)-(+)-pseudoephedrine, reference compound] ?
Response: -0.3%

---

- protocol.summary: Quantitative targeted LC-MS/MS pharmacokinetics of AR ingredients in rat plasma after oral MBST
- Format: in vivo
- conditions: male, Sprague-Dawley, rat, in vivo, po, 2 g/kg
Quick reference for half-life among some molecules

molecule	half-life
c1cc2c(cc1[C@H]1OC[C@H]3[C@@H]1CO[C@H]3c1ccc3c(c1)OCO3)OCO2 [Asarinin, (−)-Asarinin]	2.93 h

Then this molecule:
Query: Reported half-life for c1cc2c(cc1[C@H]1OC[C@H]3[C@@H]1CO[C@@H]3c1ccc3c(c1)OCO3)OCO2 [Sesamin] : what is it?
Response: 2.99 h

---

- tested.system: human TRPV4 (Homo sapiens)
- Construct: Each full-length human TRPA1, TRPV1, TRPV4, and TRPM8 coding regions were introduced into a pcDNA4/TO vector; expressed in transfected cells; host or cells: T-REx-293 cells (tetracycline-induced, pcDNA4/TO vector)
- protocol.summary: Ca2+ influx assay in TRPV4-expressing T-REx-293 cells
- Format: cell-based
- conditions: T-REx-293; 10 µmol/L test compound; relative to 4 µmol/L GSK1016790A; read-out: % of Activation Compared to Positive Control against Each Subfamily of TRP Channel TRPV4
- Description: Each full-length human TRPA1, TRPV1, TRPV4, and TRPM8 coding regions were introduced into a pcDNA4/TO vector (Thermo Fisher Scientific, Waltham, MA, USA) and transfected into T-REx-293 cells (Thermo Fisher Scientific) to obtain stable cell lines expressing human TRPA1, TRPV1, TRPV4, and TRPM8. Cells were cultured in DMEM with 10% FBS, 4 mmol/L L-glutamine, and penicillin/streptomycin. […]
quantity.name: activation at 10 µM

compound	activation at 10 µM
Oc1cc(O)c2c(c1)O[C@H](c1ccc(O)c(O)c1)[C@H](O)C2 [Epicatechin]	0.6%
c1cc2c(cc1[C@H]1OC[C@H]3[C@@H]1CO[C@H]3c1ccc3c(c1)OCO3)OCO2 [Asarinin, (−)-Asarinin]	-0.1%
CN[C@@H](C)[C@H](O)c1ccccc1 [Ephedrine, (1R,2S)-(−)-Ephedrine, reference compound]	-0.4%

Here is the next item to consider.
Query: Find the measured activation at 10 µM: item C/C=C/C=C\CC/C=C/C=C/C(=O)NCC(C)C [Amide A] , target or system human TRPV4 (Homo sapiens).
Response: 2.7%
